tested on: HCT116-MTAP-KO; experiment: Cell killing in HCT116 isogenic pair (Cell Titer-Glo viability), MTAP knock-out cells; format: cell-based, human; settings: Homo sapiens, HCT-116, 144 h, 6 days incubation, 0-10 μM, * = more than 50% viability inhibition at tested concentration without a full curve

{"Given Smiles": "CCN(C(=O)c1cc2nc(N)c3c(c2[nH]1)COC3)[C@H](C)c1ccc(C(F)(F)F)cn1", "Tested Target": "HCT116-MTAP-KO", "IC50 [nM]": 43}
{"Given Smiles": "CN1CC[C@@H](N(C)C(=O)c2cc3nc(N)c4c(c3[nH]2)COC4)c2ccc(C(F)(F)F)cc21", "Tested Target": "HCT116-MTAP-KO", "IC50 [nM]": 15}
{"Given Smiles": "COC[C@@H](C)N(Cc1ncc(C(F)(F)F)cc1F)C(=O)c1cc2nc(N)c3c(c2[nH]1)COC3", "Tested Target": "HCT116-MTAP-KO", "IC50 [nM]": 8.2}
{"Given Smiles": "C[C@H](c1ccc(Br)cc1F)N(C)C(=O)c1cc2nc(N)c3c(c2[nH]1)COC3", "Tested Target": "HCT116-MTAP-KO", "IC50 [nM]": 44}
{"Given Smiles": "CCC(CC)N(Cc1ncc(N2CCOCC2)cc1F)C(=O)c1cc2nc(N)c3c(c2[nH]1)COC3", "Tested Target": "HCT116-MTAP-KO", "IC50 [nM]": 6.5}
{"Given Smiles": "CCN(C(=O)c1cc2nc(N)c3c(c2[nH]1)CO[C@@H]3C)[C@@H](C)c1ccc(C2CC2)cc1F", "Tested Target": "HCT116-MTAP-KO", "IC50 [nM]": 452}
{"Given Smiles": "CO[C@@H]1CCOC[C@H]1N(Cc1ccc(-c2c(F)cccc2F)cn1)C(=O)c1cc2nc(N)c3c(c2[nH]1)COC3", "Tested Target": "HCT116-MTAP-KO", "IC50 [nM]": 2.3}
{"Given Smiles": "C[C@H](c1ncc(C2CC2)cc1F)N(C)C(=O)c1cc2nc(N)c3c(c2[nH]1)CO[C@@H]3C", "Tested Target": "HCT116-MTAP-KO", "IC50 [nM]": 2.6}
{"Given Smiles": "C[C@@H](c1ccc(C2CC2)cn1)N(C(=O)c1cc2nc(N)c3c(c2[nH]1)COC3)C1CCC1", "Tested Target": "HCT116-MTAP-KO", "IC50 [nM]": 598}
{"Given Smiles": "Nc1nc2cc(C(=O)N(Cc3ccc(-c4c(F)cccc4F)cc3F)[C@H]3CCOc4cccnc43)[nH]c2c2c1COC2", "Tested Target": "HCT116-MTAP-KO", "IC50 [nM]": 658}
{"Given Smiles": "CN(C(=O)c1cc2nc(N)c3c(c2[nH]1)COC3)[C@H]1CN(C(=O)C2CC2)Cc2cc(C(F)(F)F)ccc21", "Tested Target": "HCT116-MTAP-KO", "IC50 [nM]": 339}
{"Given Smiles": "C[C@H]1OC[C@H](N(C)C(=O)c2cc3nc(N)c4c(c3[nH]2)COC4)c2ccc(C(F)(F)F)cc21", "Tested Target": "HCT116-MTAP-KO", "IC50 [nM]": 958}
{"Given Smiles": "CCN(C(=O)c1cc2nc(N)c3c(c2[nH]1)COC3)[C@H]1COCc2cc(F)cc(F)c21", "Tested Target": "HCT116-MTAP-KO", "IC50 [nM]": 2110}
{"Given Smiles": "CN(C(=O)c1cc2nc(N)c3c(c2[nH]1)COC3)[C@@H]1COC2(CC2)c2cc(C3CC3)ccc21", "Tested Target": "HCT116-MTAP-KO", "IC50 [nM]": 33}
{"Given Smiles": "CN(C(=O)c1cc2nc(N)c3c(c2[nH]1)COC3)[C@H]1COCc2nc(C3CC3)ccc21", "Tested Target": "HCT116-MTAP-KO", "IC50 [nM]": 1410}
{"Given Smiles": "Nc1nc2cc(C(=O)N(Cc3c(F)cccc3F)[C@@H]3CCCc4cccnc43)[nH]c2c2c1COC2", "Tested Target": "HCT116-MTAP-KO", "IC50 [nM]": 4}
{"Given Smiles": "Nc1nc2cc(C(=O)N(Cc3c(F)cncc3F)[C@@H]3CCCc4cccnc43)[nH]c2c2c1COC2", "Tested Target": "HCT116-MTAP-KO", "IC50 [nM]": 4.6}
{"Given Smiles": "COC[C@@H](C)N(Cc1cnc(C2CC2)cn1)C(=O)c1cc2nc(N)c3c(c2[nH]1)COC3", "Tested Target": "HCT116-MTAP-KO", "IC50 [nM]": 34}
{"Given Smiles": "CC[C@@H](C)N(Cc1ncc(C2CC2)cc1F)C(=O)c1cc2nc(N)c3c(c2[nH]1)COC3", "Tested Target": "HCT116-MTAP-KO", "IC50 [nM]": 4.2}
{"Given Smiles": "C[C@H]1OCc2c1c(N)nc1cc(C(=O)N(C)[C@H]3COC4(CC4)c4cc(C(F)(F)F)cc(F)c43)[nH]c21", "Tested Target": "HCT116-MTAP-KO", "IC50 [nM]": 565}
{"Given Smiles": "CC[C@@H]1OC[C@@H](N(C)C(=O)c2cc3nc(N)c4c(c3[nH]2)COC4)c2ccc(C(F)(F)F)cc21", "Tested Target": "HCT116-MTAP-KO", "IC50 [nM]": 165}
{"Given Smiles": "C[C@H]1OCc2c1c(N)nc1cc(C(=O)N(C)[C@@H]3COC4(CC4)c4cc(Br)ccc43)[nH]c21", "Tested Target": "HCT116-MTAP-KO", "IC50 [nM]": 20}
{"Given Smiles": "Nc1nc2cc(C(=O)N(Cc3ncccc3F)Cc3ncccc3F)[nH]c2c2c1COC2", "Tested Target": "HCT116-MTAP-KO", "IC50 [nM]": 30}
{"Given Smiles": "C[C@@H]1OC[C@@H](N(C)C(=O)c2cc3nc(N)c4c(c3[nH]2)COC4)c2ccc(Br)cc21", "Tested Target": "HCT116-MTAP-KO", "IC50 [nM]": 351}
{"Given Smiles": "CCN(C(=O)c1cc2nc(N)c3c(c2[nH]1)COC3)[C@@H](C)c1ccc(Br)cc1F", "Tested Target": "HCT116-MTAP-KO", "IC50 [nM]": 336}
{"Given Smiles": "CO[C@@H]1CCOC[C@H]1N(Cc1ccc(-c2c(F)cccc2F)cn1)C(=O)c1cc2nc(N)c3c(c2[nH]1)CO[C@H]3C", "Tested Target": "HCT116-MTAP-KO", "IC50 [nM]": 103}
{"Given Smiles": "Nc1nc2cc(C(=O)N(Cc3ncc(C4CC4)cc3F)C3CCC3)[nH]c2c2c1COC2", "Tested Target": "HCT116-MTAP-KO", "IC50 [nM]": 26}
{"Given Smiles": "Cc1cc([C@@H](C)N(C)C(=O)c2cc3nc(N)c4c(c3[nH]2)COC4)c(F)cc1C1CC1", "Tested Target": "HCT116-MTAP-KO", "IC50 [nM]": 85}
{"Given Smiles": "CCC(CC)N(Cc1c(F)cc(C(F)(F)F)cc1F)C(=O)c1cc2nc(N)c3c(c2[nH]1)CO[C@@H]3C", "Tested Target": "HCT116-MTAP-KO", "IC50 [nM]": 6.9}
